- runDescription: qHTS Validation assay for Inhibitors of Plasmodium falciparum Dd2 growth in vitro; note: nearly all actives have a fitted effect of over 70% in size
- particulars: P. falciparum Dd2 in RBCs, SYBR Green growth, 72 h; series mostly up to 28.7 µM
- Source text: Malaria, a parasitic disease spread to humans through the bite of a Plasmodium infected Anopheles mosquito, continues to be a global health burden affecting millions of people, with an estimated 228 million cases and 405,000 deaths in 2018. Concerns about safety and limitations of current antimalarial treatments strongly emphasize the need to develop new therapeutic options. […]
The campaign covered roughly 4,100 compounds. About 1,600 (39%) were called active. About 25% were inconclusive and are not listed. Calls come from the whole dose curve; as a rule, active = well fitted inhibition curve with a large enough effect; inconclusive = small, poorly fitted or top-dose-only effect; inactive = no such curve, though single readings can be large or run the other way. This is one part of the list.
Returns: one label drawn from true (1) (active), false (0) (inactive)

Below are worked cases with known answers.
INSERT INTO assay_data (compound, categorylabel) VALUES
  ('CCOc1ccccc1NC(=O)N1CCC([C@@H]2[C@H](OC)C(=O)N2C(C)C)CC1', 'false (0)'),
  ('N=c1ccn(Cc2ccc(Cl)cc2)cc1', 'true (1)'),
  ('COc1ccc(NC(C)C(=O)Nc2cc(C(F)(F)F)ccc2N2CCOCC2)c(OC)c1 (stereo not given)', 'true (1)'),
  ('CC(Oc1ccccc1)C(=O)NC1CCN(c2cc(C(F)(F)F)ncn2)CC1 (stereo not given)', 'false (0)');

Status in this test for COc1cc(Cl)c(C)cc1NC(C)C(=O)Nc1cc(C(F)(F)F)ccc1N1CCOCC1 (stereo not given) ?
true (1)

###

- runDescription: qHTS Validation assay for Inhibitors of Plasmodium falciparum Dd2 growth in vitro; note: nearly all actives have a fitted effect of over 70% in size
- particulars: P. falciparum Dd2 in RBCs, SYBR Green growth, 72 h; series mostly up to 28.7 µM
- Description: Malaria, a parasitic disease spread to humans through the bite of a Plasmodium infected Anopheles mosquito, continues to be a global health burden affecting millions of people, with an estimated 228 million cases and 405,000 deaths in 2018. Concerns about safety and limitations of current antimalarial treatments strongly emphasize the need to develop new therapeutic options. […]
The campaign covered roughly 4,100 compounds. About 1,600 (39%) were called active. Another 25% or so got no clear call; they are omitted. Calls follow the shape of the dose curve; as a rule, active = well fitted inhibition curve with a large enough effect; inconclusive = small, poorly fitted or top-dose-only effect; inactive = no such curve, though single readings can be large or run the other way. The list shows a part of the results.
Returns: one label drawn from yes (1) for active, no (0) for inactive

Below are worked cases with known answers.
INSERT INTO assay_data (compound, categorylabel) VALUES
  ('CC(C)Oc1ccc(C(CCNCc2ccc(O)cc2)c2ccccc2)cc1 (stereo not given)', 'yes (1)'),
  ('CC(NCc1ccccc1O)C12CC3CC(CC(C3)C1)C2 (stereo not given)', 'yes (1)'),
  ('Cc1cnc(C(=O)N[C@@H]2CCC[C@@H]2C(=O)N2CCC(Cc3ccccc3)CC2)cn1', 'no (0)'),
  ('Cc1cc(Nc2cc(Cl)cc(Cl)c2)nc(N)n1', 'yes (1)'),
  ('Cc1ccc(Nc2nc3nonc3nc2Nc2cccc(C(F)(F)F)c2)cc1Cl', 'yes (1)'),
  ('N#Cc1cccc(-c2cn3c(n2)N(C(=O)CC2CCCC2)CCC3)c1', 'no (0)'),
  ('CCCC(C)N1CC2(CCN(C(=O)Cn3nc(C)cc3C)CC2)OC1=O (stereo not given)', 'no (0)'),
  ('CCN(CC)CCNC(=O)c1ccc(NC(=O)c2cn(-c3ccc(F)cc3)nc2-c2cccc(OC)c2)cc1', 'yes (1)'),
  ('O=C1Nc2ccccc2CN(CC2CC2)C12CCNCC2', 'no (0)');

# evaluate next
Status in this test for CCOC(=O)c1ccc2c(c1)[C@@H]1C=CC[C@@H]1[C@H](c1cccc(OC)c1OC)N2 ?
yes (1)
